Hi there, I'd appreciate the recorded half-life for every entry that follows.
assay: Elimination half life in Beagle dog at 0.5 mg/kg, iv; format: ADME, organism-based, Canis lupus familiaris; set-up: dose 0.5 mg/kg, route intravenous; conditions: in vivo
Answers are plain numbers, in h.

smi | half-life (h)
O=C(NC[C@@H]1OC(=O)N2c3ccc(N4CCOCC4=O)cc3OC[C@@H]12)c1ccc(Cl)s1 | 3.1

Shift focus to the following entry.
Qu. Given O=C(NC[C@H]1CN(c2ccc(N3CCOCC3=O)cc2)C(=O)O1)c1ccc(Cl)s1 , respond with its half-life.
Ans. 2.4

----------
assay: Elimination half life in Sprague-Dawley rat at 10 mg/kg, po; assay type: ADME, organism-based; set-up: dose 10 mg/kg, route oral; details: in vivo, read-out: beta t1/2 (converted)
Hi there, I'd appreciate the recorded half-life for every entry that follows.
Numbers only, in h.

Consider the worked cases shown below.
smi | readout.value
O=C(NC[C@@H]1OC(=O)N2c3ccc(N4CCOCC4=O)cc3S(=O)(=O)C[C@@H]12)c1ccc(Cl)s1 | 2.14
O=C(NC[C@@H]1OC(=O)N2c3ccc(N4CCOCC4=O)cc3NC[C@@H]12)c1ccc(Cl)s1 | 1.52
NS(=O)(=O)c1ccccc1-c1ccc2c(c1)OC[C@H]1[C@H](CNC(=O)c3ccc(Cl)s3)OC(=O)N21 | 1.65
O=C(NC[C@@H]1OC(=O)N2c3ccc(N4CCOCC4=O)cc3SC[C@@H]12)c1ccc(Cl)s1 | 3.15

Shift focus to the following entry.
Qu. Given O=C(NC[C@@H]1OC(=O)N2c3ccc(N4CCOCC4=O)cc3CC[C@@H]12)c1ccc(Cl)s1 , respond with its half-life.
Ans. 3.54

----------
Hi there, I'd appreciate the recorded AUC(0-inf) for every entry that follows.
assay: AUC (0 to infinity) in Beagle dog at 0.5 mg/kg, iv; type: ADME, organism-based, Canis lupus familiaris; set-up: time infinity, dose 0.5 mg/kg, route intravenous; conditions: plasma
Give bare numbers, in ng·h/mL.

molecule | unit.abbrev | AUC(0-inf)
O=C(NC[C@@H]1OC(=O)N2c3ccc(N4CCOCC4=O)cc3OC[C@@H]12)c1ccc(Cl)s1 | ng·h/mL | 1320

Shift focus to the following entry.
Qu. Given O=C(NC[C@H]1CN(c2ccc(N3CCOCC3=O)cc2)C(=O)O1)c1ccc(Cl)s1 [RIVAROXABAN] , respond with its AUC(0-inf).
Ans. 916

----------
experiment: Plasma clearance in Beagle dog at 0.5 mg/kg, iv; assay type: ADME, organism-based, Canis lupus familiaris; design: dose 0.5 mg/kg, route intravenous
measured.quantity: clearance (mL/min/kg)
One number for each entry, in mL/min/kg.

# per-item lookup of clearance; items listed below
1. O=C(NC[C@@H]1OC(=O)N2c3ccc(N4CCOCC4=O)cc3OC[C@@H]12)c1ccc(Cl)s1
2. O=C(NC[C@H]1CN(c2ccc(N3CCOCC3=O)cc2)C(=O)O1)c1ccc(Cl)s1

Ans.
6.67
10

----------
assay: Cmax in Sprague-Dawley rat at 10 mg/kg, po; assay type: ADME, organism-based; set-up: dose 10 mg/kg, route oral; details: in vivo
measured.quantity: Cmax (ng/mL)
Answers are plain numbers, in ng/mL.

# per-item lookup of Cmax; items listed below
1. O=C(NC[C@@H]1OC(=O)N2c3ccc(N4CCOCC4=O)cc3S(=O)(=O)C[C@@H]12)c1ccc(Cl)s1
2. O=C(NC[C@@H]1OC(=O)N2c3ccc(N4CCOCC4=O)cc3SC[C@@H]12)c1ccc(Cl)s1
3. NS(=O)(=O)c1ccccc1-c1ccc2c(c1)OC[C@H]1[C@H](CNC(=O)c3ccc(Cl)s3)OC(=O)N21
4. O=C(NC[C@@H]1OC(=O)N2c3ccc(N4CCOCC4=O)cc3NC[C@@H]12)c1ccc(Cl)s1
5. O=C(NC[C@@H]1OC(=O)N2c3ccc(N4CCOCC4=O)cc3CC[C@@H]12)c1ccc(Cl)s1

Ans.
1: 917; 2: 167; 3: 3630; 4: 565; 5: 3020

Where do these numbers come from? They come from ChEMBL document CHEMBL3351225.
